target.or.system: human Claudin-6 (CLDN6) (human) (UniProt P56747)
method.notes: FACS, limiting dilution, ARK2 cells
Please respond with reported FACS signal at 200 nM for every item in the list.
Enter a number only.

Request: // returns reported FACS signal at 200 nM for input AB S3 (antibody, V domains shown) VH: EVQLLESGGGLVQPGGSMRLSCAASGFTFSNYWMNWVRQAPGKGLEWIAQIRLKSDNYVTHYTDSVKGRFTISRDDSKRTVYLQMNSLRAEDTGIYYCSDGPPSGSWGQGTLLTVSS VL: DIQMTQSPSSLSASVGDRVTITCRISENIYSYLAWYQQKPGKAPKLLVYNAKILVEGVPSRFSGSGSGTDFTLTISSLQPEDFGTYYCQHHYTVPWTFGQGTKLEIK
Response: 83600

Request: // returns reported FACS signal at 200 nM for input AB S1 (antibody, V domains shown) VH: EVQLLESGGGLVQPGGSMRLSCAASGFTFSNYWMNWVRQAPGKGLEWIAQIRLKSDNYATHYTDSVKGRFTISRDDSKRTVYLQMNSLRAEDTGTYYCSDGPPSGSWGQGTLLTVSS VL: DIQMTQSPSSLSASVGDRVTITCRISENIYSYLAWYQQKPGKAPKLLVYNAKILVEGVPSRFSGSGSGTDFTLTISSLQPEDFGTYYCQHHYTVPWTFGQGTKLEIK
Response: 62500

Request: // returns reported FACS signal at 200 nM for input AB S12 (antibody, V domains shown) VH: QVQLVQSGAEVKKPGASVKMSCKASGYTFTTYTMHWVRQAPGQGLEWIGFINPSSGYTEYAQKFQGRVTLTADKSTSTVYMELSSLRSEDTAVYFCANGDYYVGYWGQGTLVTVSS VL: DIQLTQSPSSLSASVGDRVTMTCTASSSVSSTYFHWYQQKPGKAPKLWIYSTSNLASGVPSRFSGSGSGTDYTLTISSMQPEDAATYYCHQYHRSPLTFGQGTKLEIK
Response: 62300
